Source: the supplement of paper PMC9233669

tested on: biotinyl-Phe-oxazolone; assay: self-aminoacylation, catalytic enhancement (BFO) (fold over background); higher = more active; k-Seq, kA / k0A0; sequences stand for … in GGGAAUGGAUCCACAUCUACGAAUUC…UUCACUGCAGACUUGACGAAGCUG
Variants at the floor of the assay were thinned out.
Measured self-aminoacylation determines class: bottom: < 4; middle: ≥ 4 and < 30; top: ≥ 30

*Q* Classify this sequence: AAGUUUGGUAAUAGUCGCAGG [Fam3.1 aminoacylation ribozyme variant]
*A* bottom

*Q* Classify this sequence: UAGUUUGCUGAUAGUCGCAAG [Fam3.1 aminoacylation ribozyme variant]
*A* bottom

*Q* Classify this sequence: AUUUCCCUGGUCAUCUAGUGA [Fam2.1 aminoacylation ribozyme variant]
*A* top

*Q* Classify this sequence: CUAUUUCAAACAAUCAGUCUG [Fam1A.1 aminoacylation ribozyme variant]
*A* middle

*Q* Classify this sequence: UUUCACCUACGUCAUCGGGUG [Fam2.2 aminoacylation ribozyme variant]
*A* top

*Q* Classify this sequence: AUUACCGUGGCCAUCGAGUGA [Fam2.1 aminoacylation ribozyme variant]
*A* top

*Q* Classify this sequence: AUUCGCCUAGGUCACCGGGUG [Fam2.2 aminoacylation ribozyme variant]
*A* top

*Q* Classify this sequence: AUUCACCUAGGUCUUCGGGUC [Fam2.2 aminoacylation ribozyme variant]
*A* bottom

*Q* Classify this sequence: AUUACCGCGGUCAUCGAGUGA [Fam2.1 aminoacylation ribozyme variant]
*A* top

*Q* Classify this sequence: AUUCACCUAGUUCACCGGGUG [Fam2.2 aminoacylation ribozyme variant]
*A* middle

*Q* Classify this sequence: CCACACUUAAGGCAAUCGGUC [Fam1B.1 aminoacylation ribozyme variant]
*A* bottom

*Q* Classify this sequence: AAGCUUGCUAAUAAUCGCAAG [Fam3.1 aminoacylation ribozyme variant]
*A* bottom

*Q* Classify this sequence: CUUACCCUGGUCUUCGAGUGA [Fam2.1 aminoacylation ribozyme variant]
*A* middle

---

tested on: biotinyl-Phe-oxazolone; assay: self-aminoacylation, catalytic enhancement (BFO) (fold over background); higher = more active; k-Seq, kA / k0A0; sequences stand for … in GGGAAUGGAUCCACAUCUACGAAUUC…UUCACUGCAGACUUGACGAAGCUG
This sample holds only a part of the variants without activity.
Could you label it Y if measured self-aminoacylation is 1 or higher, and N otherwise?

*Q* Is self-aminoacylation for AUUCCCCUGAUCAUCGAGUGA [Fam2.1 aminoacylation ribozyme variant] at or above 1?
*A* Y

*Q* Is self-aminoacylation for ACUCACCUAGGUCAUCGUGUG [Fam2.2 aminoacylation ribozyme variant] at or above 1?
*A* Y

*Q* Is self-aminoacylation for AUUACGCUGGUCAUCAAGUGA [Fam2.1 aminoacylation ribozyme variant] at or above 1?
*A* Y

*Q* Is self-aminoacylation for UUUCACCUAGGUCAUUGGGUG [Fam2.2 aminoacylation ribozyme variant] at or above 1?
*A* Y

*Q* Is self-aminoacylation for CCCCACUUCAAGCAAUCGGUC [Fam1B.1 aminoacylation ribozyme variant] at or above 1?
*A* Y

*Q* Is self-aminoacylation for AAGUUUGCUAUUAGUCCCAAG [Fam3.1 aminoacylation ribozyme variant] at or above 1?
*A* Y

*Q* Is self-aminoacylation for CUACUUCAUAGAAUCGGUCUG [Fam1A.1 aminoacylation ribozyme variant] at or above 1?
*A* N

*Q* Is self-aminoacylation for AAGUUUGCCAGUAGUCGCAAG [Fam3.1 aminoacylation ribozyme variant] at or above 1?
*A* N

*Q* Is self-aminoacylation for AUUACCCUGGUCAUCGUGUGU [Fam2.1 aminoacylation ribozyme variant] at or above 1?
*A* Y

*Q* Is self-aminoacylation for CCACACUUCAAGCACUCGCUC [Fam1B.1 aminoacylation ribozyme variant] at or above 1?
*A* Y

---

system: biotinyl-Trp-oxazolone; assay: self-aminoacylation, catalytic enhancement (BWO) (fold over background); higher = more active; k-Seq, kA / k0A0; sequences stand for … in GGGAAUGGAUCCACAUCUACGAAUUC…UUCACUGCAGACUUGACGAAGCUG
Fewer inactive variants are shown than the library holds.
Could you label it label 1 if measured self-aminoacylation is 2 or higher, and label 0 otherwise?

*Q* Is self-aminoacylation for AUUACCCUGGUCAUCGGGUGC [Fam2.1 aminoacylation ribozyme variant] at or above 2?
*A* label 1

*Q* Is self-aminoacylation for AUUCACCUAGGUCCUAGGGUG [Fam2.2 aminoacylation ribozyme variant] at or above 2?
*A* label 1

*Q* Is self-aminoacylation for CCACACUUGAACCAAUCGGUC [Fam1B.1 aminoacylation ribozyme variant] at or above 2?
*A* label 0

*Q* Is self-aminoacylation for UCACACUUCAAGCAAGCGGUC [Fam1B.1 aminoacylation ribozyme variant] at or above 2?
*A* label 0

*Q* Is self-aminoacylation for CCACACUUAAAUCAAUCGGUC [Fam1B.1 aminoacylation ribozyme variant] at or above 2?
*A* label 0

*Q* Is self-aminoacylation for AAGUUUGCUAAUAGUUGCAAC [Fam3.1 aminoacylation ribozyme variant] at or above 2?
*A* label 0

*Q* Is self-aminoacylation for CCACACUUCAAGCAAUCUGCC [Fam1B.1 aminoacylation ribozyme variant] at or above 2?
*A* label 0

*Q* Is self-aminoacylation for AAGUUUGCUAAUAGCCGCACG [Fam3.1 aminoacylation ribozyme variant] at or above 2?
*A* label 1

*Q* Is self-aminoacylation for AUUCACCUAGUUCAUCGGGUC [Fam2.2 aminoacylation ribozyme variant] at or above 2?
*A* label 0

*Q* Is self-aminoacylation for CUACAUCAAAAAAUCGGUCUG [Fam1A.1 aminoacylation ribozyme variant] at or above 2?
*A* label 0

*Q* Is self-aminoacylation for CCACACAUCUAGCAAUCGGUC [Fam1B.1 aminoacylation ribozyme variant] at or above 2?
*A* label 0

*Q* Is self-aminoacylation for AUUACACGGGUCAUCGAGUGA [Fam2.1 aminoacylation ribozyme variant] at or above 2?
*A* label 1

*Q* Is self-aminoacylation for AUUACCCUGGGCAUCGAGUGU [Fam2.1 aminoacylation ribozyme variant] at or above 2?
*A* label 1

*Q* Is self-aminoacylation for AAGUUUGCUAAUAGACGCACG [Fam3.1 aminoacylation ribozyme variant] at or above 2?
*A* label 0

*Q* Is self-aminoacylation for CCACACUUCAAGCUACCGGUC [Fam1B.1 aminoacylation ribozyme variant] at or above 2?
*A* label 0

*Q* Is self-aminoacylation for CUACUUCAAAGCAUCGGUCUG [Fam1A.1 aminoacylation ribozyme variant] at or above 2?
*A* label 0

*Q* Is self-aminoacylation for AUUCCCCUAGGUCAGCGGGUG [Fam2.2 aminoacylation ribozyme variant] at or above 2?
*A* label 1

*Q* Is self-aminoacylation for GCGUUUGCUAAUAGUCGCAAG [Fam3.1 aminoacylation ribozyme variant] at or above 2?
*A* label 1

*Q* Is self-aminoacylation for AUUACCCUAGUCAUAGAGUGA [Fam2.1 aminoacylation ribozyme variant] at or above 2?
*A* label 1

*Q* Is self-aminoacylation for AUUACCCUGGUGUUCGAGUGA [Fam2.1 aminoacylation ribozyme variant] at or above 2?
*A* label 1

---

tested on: biotinyl-Phe-oxazolone; assay: self-aminoacylation, catalytic enhancement (BFO) (fold over background); higher = more active; k-Seq, kA / k0A0; sequences stand for … in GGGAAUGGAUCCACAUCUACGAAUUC…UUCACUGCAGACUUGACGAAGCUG
This sample holds only a part of the variants without activity.
For each entry below, report its self-aminoacylation value.
Give the figure only, with no unit attached.

*Q* Any idea what self-aminoacylation was measured for CUGCUUCAAACAAUCGGGCUG [Fam1A.1 aminoacylation ribozyme variant] ?
*A* 38.7

*Q* Any idea what self-aminoacylation was measured for ACGUUUGCUAAGAGUCGCAAG [Fam3.1 aminoacylation ribozyme variant] ?
*A* 2.95

*Q* Any idea what self-aminoacylation was measured for AUGUUUGCUAGUAGUCGCAAG [Fam3.1 aminoacylation ribozyme variant] ?
*A* 1.15

*Q* Any idea what self-aminoacylation was measured for CCACACUUCAUGCAAUCGGUU [Fam1B.1 aminoacylation ribozyme variant] ?
*A* 0.766

*Q* Any idea what self-aminoacylation was measured for CCACAUUUCAAGCAAUCGGUC [Fam1B.1 aminoacylation ribozyme variant] ?
*A* 3.26

*Q* Any idea what self-aminoacylation was measured for CAGUUUGCUAUUAGUCGCAAG [Fam3.1 aminoacylation ribozyme variant] ?
*A* 1.88

*Q* Any idea what self-aminoacylation was measured for CCACCCUUCAGGCAAUCGGUC [Fam1B.1 aminoacylation ribozyme variant] ?
*A* 1.82

*Q* Any idea what self-aminoacylation was measured for AAGUUUGCAAAUUGUCGCAAG [Fam3.1 aminoacylation ribozyme variant] ?
*A* 0.968

*Q* Any idea what self-aminoacylation was measured for AAGUUUGCUAAUAAUCGCAAG [Fam3.1 aminoacylation ribozyme variant] ?
*A* 1.6

*Q* Any idea what self-aminoacylation was measured for AUUCACCUAGGUCAUGGCGUG [Fam2.2 aminoacylation ribozyme variant] ?
*A* 59.8

*Q* Any idea what self-aminoacylation was measured for AGUCACCUAGGUCAUAGGGUG [Fam2.2 aminoacylation ribozyme variant] ?
*A* 9.22

*Q* Any idea what self-aminoacylation was measured for AUUAACCUAGGUGAUCGGGUG [Fam2.2 aminoacylation ribozyme variant] ?
*A* 8.95

*Q* Any idea what self-aminoacylation was measured for ACUCACCUAGGUCAUGGGGUG [Fam2.2 aminoacylation ribozyme variant] ?
*A* 24.8

*Q* Any idea what self-aminoacylation was measured for AUUACCCGGGUCAUCGAGUCA [Fam2.1 aminoacylation ribozyme variant] ?
*A* 1.05

*Q* Any idea what self-aminoacylation was measured for CUACUUGAAACAAUCGUUCUG [Fam1A.1 aminoacylation ribozyme variant] ?
*A* 0.5

*Q* Any idea what self-aminoacylation was measured for AUUCACCUAGGUCAUAGGUUG [Fam2.2 aminoacylation ribozyme variant] ?
*A* 0.595

*Q* Any idea what self-aminoacylation was measured for CUACUUCAGACAAUCGGUCUC [Fam1A.1 aminoacylation ribozyme variant] ?
*A* 1.09

*Q* Any idea what self-aminoacylation was measured for AUUCACCUAGGUCAUCGGGCU [Fam2.2 aminoacylation ribozyme variant] ?
*A* 37.6

*Q* Any idea what self-aminoacylation was measured for AGUGACCUAGGUCAUCGGGUG [Fam2.2 aminoacylation ribozyme variant] ?
*A* 25.7

*Q* Any idea what self-aminoacylation was measured for CUCCUCCAAACAAUCGGUCUG [Fam1A.1 aminoacylation ribozyme variant] ?
*A* 2.28

*Q* Any idea what self-aminoacylation was measured for AUUCACCUAGGUCAUCCAGUG [Fam2.2 aminoacylation ribozyme variant] ?
*A* 52

*Q* Any idea what self-aminoacylation was measured for AUACUCCUAGGUCAUCGGGUG [Fam2.2 aminoacylation ribozyme variant] ?
*A* 27.5

*Q* Any idea what self-aminoacylation was measured for GUUACCCCGGUCAUCGAGUGA [Fam2.1 aminoacylation ribozyme variant] ?
*A* 45.8

*Q* Any idea what self-aminoacylation was measured for AUUCACCUAGAUCAUCGGGUA [Fam2.2 aminoacylation ribozyme variant] ?
*A* 5.46
